- MEASURED TARGET: TRIM25 CC-PRY/SPRY triple mutant (UniProt Q14258 189-630, H505E;K508E;K602E)
- Sequence (Q14258 189-630 H505E/K508E/K602E): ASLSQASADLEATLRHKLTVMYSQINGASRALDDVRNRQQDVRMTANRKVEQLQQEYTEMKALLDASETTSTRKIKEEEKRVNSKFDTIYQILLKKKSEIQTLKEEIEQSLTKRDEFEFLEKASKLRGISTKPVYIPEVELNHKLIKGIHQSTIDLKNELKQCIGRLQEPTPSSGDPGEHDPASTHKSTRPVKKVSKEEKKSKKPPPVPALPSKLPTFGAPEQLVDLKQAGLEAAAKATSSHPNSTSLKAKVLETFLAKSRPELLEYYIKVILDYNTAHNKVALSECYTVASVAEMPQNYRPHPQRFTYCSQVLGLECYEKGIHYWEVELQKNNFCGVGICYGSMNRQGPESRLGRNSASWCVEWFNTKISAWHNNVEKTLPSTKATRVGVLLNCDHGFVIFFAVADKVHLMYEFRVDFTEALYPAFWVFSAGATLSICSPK
- MEASUREMENT NOTES: ITC; second fitted site; ITC and filter binding: 20 mM MES pH 6.5, 75 mM NaCl, 0.5 mM TCEP (ITC 20 C, filter binding on ice); NMR: 20 mM Na phosphate pH 6.5, 150 mM NaCl, 2 mM TCEP, 293 K
- CONDITION LABEL: protein: recombinant; tags: His-Trx (removed); chain copies: 2; hairpin
PARAMETER MEASURED: Kd (µM)
Give bare numbers, in µM.

Quick one: Kd for GUAUAGUUUAAAAGGAGAUAACUAUAC (structured_RNA) [pre-let-7a-1@2] ?
132
